The measured values listed here are drawn from patent EP4682166A1.

Quick list: detection limit (sensitivity) per entry.
- measuredTarget: T1, human NMI (N-myc Interacting protein) (human, UniProt Q13287 1-307, limits assumed)
- T1 construct: Immunogen and ELISA coating antigen; also called hNMI; antigen 1
- T1 sequence (looked up): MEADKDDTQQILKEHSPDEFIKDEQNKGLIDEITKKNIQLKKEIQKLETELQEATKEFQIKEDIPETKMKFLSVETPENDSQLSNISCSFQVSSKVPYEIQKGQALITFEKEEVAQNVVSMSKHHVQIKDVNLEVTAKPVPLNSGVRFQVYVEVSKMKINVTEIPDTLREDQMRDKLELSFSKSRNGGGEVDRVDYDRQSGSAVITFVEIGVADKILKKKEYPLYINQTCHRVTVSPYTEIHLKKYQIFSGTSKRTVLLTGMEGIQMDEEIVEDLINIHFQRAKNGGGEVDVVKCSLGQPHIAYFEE
- testName: sandwich ELISA; coating antibody 2.5 ug/mL, detection 94C4-biotin 0.5 ug/mL
# value in pg/mL; strip the unit string

240B10-1 (antibody, V domains shown, Rabbit monoclonal antibody; also called 240B10-1-biotin (biotin-labelled form)) VH: QSLEESGGRLVTPGGSLTLTCTVSGIDLSSYTMGWVRQAPGKGLEYIGIISGGGRTYYASWAKGRFTISKTSSTTVDLKVTSLTTEDTATYFCARIYTLWGQGTLVTVSS VL: QVLTQTLASVSAAVGGTVTINCQSSQSVYNNDYLAWFQQKSGQPPKQLIHSASKLASGVPSRFKGSGSGTQFTLTINDVQCDDAATYYCLGGYDCYSADCNVFGGGTEVVVK :: 60

Qu. Give the reported detection limit (sensitivity) for this binder. 39B4 (antibody, V domains shown, Rabbit monoclonal antibody; also called 39B4-1; 39B4-1-biotin (biotin-labelled form)) VH: QEQLVESGGGLVQPEGSLTLTCTASGFSFSSSYWICWVRQAPGKGLEWIACIYAGTSGSTYYASWAKGRFTISKTSSTTVDLQMNSLTAADTATYFCARAGYYTYGAGVYIYPSSFKLWGPGTLVTVSS VL: DVVMTQTPASVEAAVGGTVTIKCQASESIGNALAWYQQKPGQPPKLLIYSASNLASGVPSRFSGSGSGTQFTLTISDLECADAATYYCQSYYYSSSSITFGGGTEVVVK
Ans. 40

Qu. Give the reported detection limit (sensitivity) for this binder. 98G10 (antibody, V domains shown, Rabbit monoclonal antibody; also called 98G10-1; 98G10-1-biotin (biotin-labelled form)) VH: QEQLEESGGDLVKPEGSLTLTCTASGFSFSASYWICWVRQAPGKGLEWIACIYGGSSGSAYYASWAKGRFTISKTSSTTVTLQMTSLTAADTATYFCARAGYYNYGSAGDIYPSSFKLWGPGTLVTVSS VL: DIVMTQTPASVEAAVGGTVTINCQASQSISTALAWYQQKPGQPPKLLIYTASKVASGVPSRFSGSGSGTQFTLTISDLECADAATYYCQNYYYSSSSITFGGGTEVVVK
Ans. 60

Qu. Give the reported detection limit (sensitivity) for this binder. B-8 (antibody, V domains shown, Rabbit monoclonal antibody; also called B8-1; B-8-biotin (biotin-labelled form)) VH: QSLEESGGDLVKPGASLTLTCTASGFSFSSSYYMCWVRQAPGKGLEWIACIYAGSSGSTYYASWAKGRFTISKTSSTTVTLQMTSLTAADTATYFCAREYSYDDYGDFWGFNLWGPGTLVTVSS VL: ALVMTQTPSSVSAAVGGTVTINCQASQNIYTNLAWYQQKPGQPPKLLIYGASNLESGVPSRFKGSGSGTEYTLTISDLECDDAATYYCQSSLYSRIADRANAFGGGTEVVVK
Ans. 60
